Data provenance is the supplement of paper PMC10567573.

Would you mind telling me the reported protein stability index of each entry?
B1: PCDHGA10 (parent)
chain: FHELQMQVTASDSGDPPLSSNVSL

# Variants of: B1
# method-description: protein stability index of a GFP-peptide fusion (GPS, HEK-293T) (PSI 1-6); higher = more stable;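 note: lentivirally expressed fusions sorted by FACS into six bins by GFP to DsRed ratio, PSI derived from sequencing read proportions per bin multiplied by bin number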
# details: c terminus: a fixed tail appended

Before answering, review these 2 worked examples.
1. VHELQMQVTASDSGDPPLSSNVSL | 4.11
2. FHEWQMQVTASDSGDPPLSSNVSL | 2.2

Each variant below has a reported value. Please supply its protein stability index.
1. FHELQMQVTASDSGDPPLSCNVSL
2. FHELQMQSTASDSGDPPLSSNVSL
3. FHELQMQVTASDSGDPPLPSNVSL
4. FHELQMQVTASDSGDPPLSSPVSL
5. FHHLQMQVTASDSGDPPLSSNVSL

[1.62, 3.07, 2.2, 2.5, 1.75]

Each variant below has a reported value. Please supply its protein stability index.
1. FHELQMQVTASDQGDPPLSSNVSL
2. FCELQMQVTASDSGDPPLSSNVSL
3. FHELQMQVTDSDSGDPPLSSNVSL
4. FHELQMIVTASDSGDPPLSSNVSL
5. FHELQMQGTASDSGDPPLSSNVSL
6. THELQMQVTASDSGDPPLSSNVSL
7. FHELQMQVTASDSGDPSLSSNVSL
8. FHELQMQVTASDSGDPGLSSNVSL

1: 2.15; 2: 2.11; 3: 2.62; 4: 2.62; 5: 3.3; 6: 4.57; 7: 2.13; 8: 2.14

Each variant below has a reported value. Please supply its protein stability index.
1. FHELQMQVTASDSGDPPLSSNVYL
2. FHELQMQNTASDSGDPPLSSNVSL
3. FHELQMQVTASDSEDPPLSSNVSL
4. FHELQMQVTASDSGDPPLHSNVSL
5. FHELQMQVTASDSGDPPLSVNVSL
6. FHELQMQVTASDSGDPPLSDNVSL
7. FHELQMQVTASDSGDPPLESNVSL

1.75
3.72
2.98
1.81
3.46
3.06
3.04
